Experiment: Phase 1 pharmacokinetic study of a single oral dose of 20 mg E4 monohydrate in female subjects with normal hepatic function and mild, moderate or severe hepatic impairment (plasma, LC-MS/MS, non-compartmental analysis)
Assay type: in vivo, human
Settings: female, human, plasma, po, 20 mg, Mild hepatic impairment; single oral dose 20 mg E4 monohydrate; plasma; read-out: T1/2, Mean (converted)
quantity.name: half-life (h)

[
  {
    "molecule": "C[C@]12CC[C@@H]3c4ccc(O)cc4CC[C@H]3[C@@H]1[C@@H](O)[C@@H](O)[C@@H]2O [E4]",
    "quantity.name": "half-life",
    "recorded.value": 22.1
  }
]

----------
Assay: Phase 1 pharmacokinetic study of a single oral dose of 20 mg E4 monohydrate in female subjects with normal hepatic function and mild, moderate or severe hepatic impairment (plasma, LC-MS/MS, non-compartmental analysis)
Format: in vivo, human
Details: female, human, plasma, po, 20 mg, Mild hepatic impairment; single oral dose 20 mg E4 monohydrate; plasma; read-out: AUCinf, Median
quantity.name: AUC(0-inf) (ng·h/mL)

[
  {
    "smiles.record": "C[C@]12CC[C@@H]3c4ccc(O)cc4CC[C@H]3[C@@H]1[C@@H](O)[C@@H](O)[C@@H]2O",
    "quantity.name": "AUC(0-inf)",
    "unit": "ng·h/mL",
    "recorded.value": 106
  }
]

----------
Assay: Phase 1 pharmacokinetic study of a single oral dose of 20 mg E4 monohydrate in female subjects with normal hepatic function and mild, moderate or severe hepatic impairment (plasma, LC-MS/MS, non-compartmental analysis)
Assay type: in vivo, human
Conditions: female, human, plasma, po, 20 mg, Moderate hepatic impairment; single oral dose 20 mg E4 monohydrate; plasma; read-out: T1/2, Median (converted)

[
  {
    "smiles.record": "C[C@]12CC[C@@H]3c4ccc(O)cc4CC[C@H]3[C@@H]1[C@@H](O)[C@@H](O)[C@@H]2O",
    "half-life": "14.3 h"
  }
]

----------
Assay: Phase 1 pharmacokinetic study of a single oral dose of 20 mg E4 monohydrate in female subjects with normal hepatic function and mild, moderate or severe hepatic impairment (plasma, LC-MS/MS, non-compartmental analysis)
Format: in vivo, human
Conditions: female, human, plasma, po, 20 mg, Normal hepatic function; single oral dose 20 mg E4 monohydrate; plasma; read-out: Vz/F, GM

[
  {
    "smiles.record": "C[C@]12CC[C@@H]3c4ccc(O)cc4CC[C@H]3[C@@H]1[C@@H](O)[C@@H](O)[C@@H]2O",
    "Vd/F": "6000 L"
  }
]

----------
Assay: Phase 1 pharmacokinetic study of a single oral dose of 20 mg E4 monohydrate in female subjects with normal hepatic function and mild, moderate or severe hepatic impairment (plasma, LC-MS/MS, non-compartmental analysis)
Format: in vivo, human
Details: female, human, plasma, po, 20 mg, Mild hepatic impairment; single oral dose 20 mg E4 monohydrate; plasma; read-out: AUClast, Mean

[
  {
    "smiles.record": "C[C@]12CC[C@@H]3c4ccc(O)cc4CC[C@H]3[C@@H]1[C@@H](O)[C@@H](O)[C@@H]2O",
    "unit": "ng·h/mL",
    "AUC(0-t)": 121
  }
]

----------
Assay: Phase 1 pharmacokinetic study of a single oral dose of 20 mg E4 monohydrate in female subjects with normal hepatic function and mild, moderate or severe hepatic impairment (plasma, LC-MS/MS, non-compartmental analysis)
Format: in vivo, human
Details: female, human, plasma, po, 20 mg, Normal hepatic function; single oral dose 20 mg E4 monohydrate; plasma; read-out: AUClast, Mean

[
  {
    "smiles.record": "C[C@]12CC[C@@H]3c4ccc(O)cc4CC[C@H]3[C@@H]1[C@@H](O)[C@@H](O)[C@@H]2O",
    "AUC(0-t) (ng·h/mL)": 107
  }
]
